Source: ChEMBL document CHEMBL1208778

Measured Activity by item
- Tested on: MCF7
- assay: Cell cycle arrest in human MCF7 cells assessed as accumulation at G1 phase at 10 uM after 24 hrs by FACS analysis
- Type: functional
Output spec: scalar in %, unitless text.

Problem: For MCF7, provide Activity of COc1ccc(-c2cn(-c3cccc(C(=O)/C=C/c4ccc(O)c(OC)c4)c3)c(=O)[nH]2)cc1 please.
Result: 57.66

Problem: For MCF7, provide Activity of COc1cc(/C=C/C(=O)c2cccc(-n3cc(-c4ccccc4)[nH]c3=O)c2)cc(OC)c1OC please.
Result: 54.85

* * *

- System: ACHN
- assay: Growth inhibition of human ACHN cells
- Type: functional
property.name: GI50
Answer by giving the amount and then stating its unit.

As a guide, the following entries are already answered.
COc1cc(/C=C/C(=O)c2cccc(-n3cc(-c4cc(OC)c(OC)c(OC)c4)[nH]c3=O)c2)cc(OC)c1OC ... 1740 nM
O=C(/C=C/c1cccc(O)c1)c1cccc(-n2cc(-c3ccccc3)[nH]c2=O)c1 ... 2760 nM

Next molecule, please.
Problem: For ACHN, provide GI50 of COc1cc(/C=C/C(=O)c2cccc(-n3cc(-c4ccccc4)[nH]c3=O)c2)cc(OC)c1OC please.
Result: 1600 nM

* * *

- System: NCI-H322M
- assay: Growth inhibition of human NCI-H322M cells
- Type: functional
Measured GI50 by item
Output spec: scalar in µM, unitless text.

COc1ccc(-c2cn(-c3cccc(C(=O)/C=C/c4cc(OC)c(OC)c(OC)c4)c3)c(=O)[nH]2)cc1 ... 2.66
O=C(/C=C/c1cccc(O)c1)c1cccc(-n2cc(-c3ccc(Cl)cc3)[nH]c2=O)c1 ... 2.52
COc1cc(/C=C/C(=O)c2cccc(-n3cc(-c4ccccc4)[nH]c3=O)c2)cc(OC)c1OC ... 2.02
COc1cc(/C=C/C(=O)c2cccc(-n3cc(-c4ccc(Cl)cc4)[nH]c3=O)c2)cc(OC)c1OC ... 12.9
O=C(/C=C/c1cccc(O)c1)c1cccc(-n2cc(-c3ccccc3)[nH]c2=O)c1 ... 10.6
COc1cc(/C=C/C(=O)c2cccc(-n3cc(-c4cc(OC)c(OC)c(OC)c4)[nH]c3=O)c2)cc(OC)c1OC ... 3.61

Problem: If you can, please state the reported GI50 value of COc1cc(/C=C/C(=O)c2cccc(-n3cc(-c4ccccc4)[nH]c3=O)c2)ccc1O .
Result: 3.39

* * *

- System: SK-MEL-2
- assay: Growth inhibition of human SK-MEL-2 cells
- Assay type: functional
Measured GI50 by item
Output spec: scalar in µM, unitless text.

As a guide, the following entries are already answered.
COc1cc(/C=C/C(=O)c2cccc(-n3cc(-c4ccccc4)[nH]c3=O)c2)ccc1O ... 3.65
O=C(/C=C/c1cccc(O)c1)c1cccc(-n2cc(-c3ccccc3)[nH]c2=O)c1 ... 8.26

Next compound, please.
Problem: For SK-MEL-2, provide GI50 of COc1cc(/C=C/C(=O)c2cccc(-n3cc(-c4ccc(Cl)cc4)[nH]c3=O)c2)cc(OC)c1OC please.
Result: 3.44

* * *

- Tested on: MCF7
- assay: Cell cycle arrest in human MCF7 cells assessed as accumulation at S phase at 30 uM after 24 hrs by FACS analysis
- Format: functional
Friendly reminder: Activity below 8% is 1 (yes), at or above is 0 (no).

Previously resolved entries follow.
COc1ccc(/C=C\c2cc(OC)c(OC)c(OC)c2)cc1O ... 0 (no)
COc1cc(/C=C/C(=O)c2cccc(-n3cc(-c4ccc(Cl)cc4)[nH]c3=O)c2)ccc1O ... 1 (yes)
COc1ccc(-c2cn(-c3cccc(C(=O)/C=C/c4cc(OC)c(OC)c(OC)c4)c3)c(=O)[nH]2)cc1 ... 0 (no)

Problem: Please let me know if COc1cc(/C=C/C(=O)c2cccc(-n3cc(-c4ccc(Cl)cc4)[nH]c3=O)c2)cc(OC)c1OC shows Activity below 8%.
Result: 0 (no)

* * *

- Test system: MCF7
- assay: Cell cycle arrest in human MCF7 cells assessed as accumulation at G1 phase at 10 uM after 24 hrs by FACS analysis
- Assay type: functional
Measured Activity by item
Output spec: scalar in %, unitless text.

As a guide, the following entries are already answered.
O=C(/C=C/c1cccc(O)c1)c1cccc(-n2cc(-c3ccccc3)[nH]c2=O)c1 ... 57.26
COc1cc(/C=C/C(=O)c2cccc(N)c2)cc(OC)c1OC ... 56.17
COc1cc(/C=C/C(=O)c2cccc(-n3cc(-c4cc(OC)c(OC)c(OC)c4)[nH]c3=O)c2)cc(OC)c1OC ... 47.6
COc1ccc(/C=C\c2cc(OC)c(OC)c(OC)c2)cc1O ... 11.79
COc1cc(/C=C/C(=O)c2cccc(-n3cc(-c4ccc(Cl)cc4)[nH]c3=O)c2)ccc1O ... 46.69

Problem: If you can, please state the reported Activity value of COc1cc(/C=C/C(=O)c2cccc(-n3cc(-c4ccccc4)[nH]c3=O)c2)ccc1O .
Result: 25.85

Problem: If you can, please state the reported Activity value of COc1cc(/C=C/C(=O)c2cccc(-n3cc(-c4ccc(Cl)cc4)[nH]c3=O)c2)cc(OC)c1OC .
Result: 67.68

Problem: If you can, please state the reported Activity value of O=C(/C=C/c1cccc(O)c1)c1cccc(-n2cc(-c3ccc(Cl)cc3)[nH]c2=O)c1 .
Result: 59.35

Problem: If you can, please state the reported Activity value of COc1ccc(-c2cn(-c3cccc(C(=O)/C=C/c4cc(OC)c(OC)c(OC)c4)c3)c(=O)[nH]2)cc1 .
Result: 60.66
